# System: LOX IMVI
# experiment notes: NCI 60-cell line growth inhibition assay
# Type: cell-based
# test context: Homo sapiens; LOX IMVI (Melanoma)
quantity kind: GI50 (nM)
State just the number; it will be interpreted in nM.

INSERT INTO assay_data (compound, value) VALUES
  ('CC[C@H](CO)Nc1nc(NCc2ccc(-c3cccc([N+](=O)[O-])c3)cc2)c2ncn(C(C)C)c2n1 [Compound 48]', 190),
  ('Cn1cnc2c(NCc3ccccc3)nc(NCCO)nc21 [Olomoucine, reference compound]', 32000),
  ('CC(=O)N[C@H]1CC[C@H](Nc2nc(NCc3ccc(-c4ccccc4)nc3)c3ncn(C(C)C)c3n2)CC1 [Compound 87]', 27);

What does the data say about its GI50? Entry: CC[C@H](CO)Nc1nc(NCc2ccc(-c3ccc(OC)cc3)cc2)c2ncn(C(C)C)c2n1 [Compound 43]
3400
